Provenance of the data: patent US20040110802A1

# System: SAUR 9218
# procedureDetails: MIC Test Method, standard agar dilution
# Assay type: cell-based
# appliedConditions: agar dilution, Mueller Hinton agar, incubated overnight at 35° C.; lowest concentration that inhibits visible growth; read-out: SAUR 9218 MIC
metric: MIC (µg/mL)

a = COC(=O)CCCC(=O)Nc1cccc2cc(C(=O)Nc3ccc(C#N)cc3C(=O)O)[nH]c12
b = NS(=O)(=O)c1ccc2onc(C(=O)Nc3ccc(Br)cc3C(=O)O)c2c1
c = Cc1sc(C(=O)Nc2ccc(C#N)cc2C(=O)O)cc1S(=O)(=O)N1CCN(c2ccccn2)CC1
d = Cc1sc(C(=O)Nc2ccc(Br)cc2C(=O)O)cc1S(=O)(=O)Nc1ccc(Cl)cc1
e = N#Cc1ccc(NC(=O)c2cc3cccc(NC(=O)Cc4ccc(Cl)c(Cl)c4)c3[nH]2)c(C(=O)O)c1
Problem: Sort key: MIC. Order: high to low. Scope: items listed above. I'd appreciate it if you listed the labels in the requested order.
Result: c, d, a, b, e
(c: 32 µg/mL, d: 4 µg/mL, a: 0.5 µg/mL, b: 0.25 µg/mL, e: 0.125 µg/mL)

A = Cc1c(C(=O)Nc2ccc(Br)cc2C(=O)O)noc1-c1ccccc1
B = CCC(C)Sc1cnc(C(=O)Nc2ccc(C#N)cc2C(=O)O)cn1 (stereo not shown)
Problem: Response body: label of entry with the larger MIC; valid values A , B . Mark your answer with the label of the selected entry.
Result: A

P = O=C(O)c1cc(Br)ccc1NC(=O)c1onc2ccccc12
Q = N#Cc1ccc(NC(=O)c2ccccn2)c(C(=O)O)c1
Problem: Response body: label of entry with the larger MIC; valid values P , Q . Mark your answer with the label of the selected entry.
Result: Q
